Test system: Lactobacillus gasseri
assay-details: growth AUC relative to DMSO control (median of replicates) (fraction); higher = more growth (less inhibition), active = hit call of the paper
experimental-setup: 20 µM; 24 h
parameter-measured: growth AUC
Answers are plain numbers.

Recorded results for 4 compounds are shown here.
{"compound": "FC(F)(F)C(=NOCC1OCCO1)c1ccc(Cl)cc1", "growth AUC": 1.01}
{"compound": "O=c1cc(Cl)[nH]nc1-c1ccccc1", "growth AUC": 0.992}
{"compound": "CCOC(N)=O", "growth AUC": 1.02}
{"compound": "FC(F)(F)/N=C1\\SC(=Nc2ccccc2)N(c2ccccc2)\\C1=N\\C(F)(F)F", "growth AUC": 0.903}

List reported growth AUC for each of these compounds:
1. CC1CN(C2CCCCCCCCCCC2)CC(C)O1 (mixture of isomers)
2. CCOC(=O)C(C)Oc1ccc(Oc2nc3ccc(Cl)cc3o2)cc1 (racemic)
3. N#Cc1ccccc1NC(=O)c1snc(Cl)c1Cl
4. CCOC(=O)C1CC(=O)C(=C(O)C2CC2)C(=O)C1 (stereo not drawn)
5. CCOCN(C(=O)C(=O)O)c1c(C)cccc1CC
6. Clc1ccc(CSc2ccc(Cl)cc2)cc1
7. CCCCCCCC(=O)Oc1c(Br)cc(C#N)cc1Br
8. CCOC(=O)C1=NOC(c2ccccc2)(c2ccccc2)C1

Completion:
[0.926, 0.91, 1, 1.01, 0.989, 0.98, 0.987, 0.99]

Measured growth AUC, CN(C)C(N)=O : 0.983
